Test system: NB5;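 also: growth inhibition of NB5 cells, read out as cell viability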
Experiment: cells
Assay type: functional, cell-based
Settings: Homo sapiens
Description: SANGER: Inhibition of human NB5 cell growth in a cell viability assay.
assayReadout: pIC50
Keep in mind that pIC50 stands for -log10 of concentration in molar terms.

The reported pIC50 of the molecule CC(C)=CC[C@@H](O)C1=CC(=O)c2c(O)ccc(O)c2C1=O was 5.61

* * *

System: MZ1-PC;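 also: cell viability assay measuring growth inhibition of human MZ1-PC cells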
Experiment: cells
Assay type: functional, cell-based
Conditions: Homo sapiens
Description: SANGER: Inhibition of human MZ1-PC cell growth in a cell viability assay.
assayReadout: IC50

Record excerpt, results attached:
C[C@]12O[C@H](C[C@]1(O)CO)n1c3ccccc3c3c4c(c5c6ccccc6n2c5c31)CNC4=O    > 2000 nM
N#C/C(=C1/Nc2ccccc2S1)c1ccnc(NCCc2cccnc2)n1    > 8000 nM
CC(O)(CS(=O)(=O)c1ccc(F)cc1)C(=O)Nc1ccc(C#N)c(C(F)(F)F)c1 (stereo unspecified) [BICALUTAMIDE]    > 1020 nM
O=c1[nH]c2ccccc2n1C1CCN(Cc2ccc(-c3nc4cc5[nH]cnc5cc4nc3-c3ccccc3)cc2)CC1    > 2560 nM
O=c1cc(N2CCOCC2)oc2c(-c3cccc4c3sc3ccccc34)cccc12    > 2000 nM

Next, consider the following compound.
The reported IC50 of the compound COc1cc(C)c(Sc2cnc(NC(=O)c3ccc(CNC(C)C(C)(C)C)cc3)s2)cc1C(=O)N1CCN(C(C)=O)CC1 (stereo unspecified) was 3760 nM

* * *

Tested on: NCI-H1648;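 also: cell viability assay measuring inhibition of NCI-H1648 cell growth, from the Sanger screening data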
Assay: cells
Type: functional, cell-based
Conditions: Homo sapiens
Description: SANGER: Inhibition of human NCI-H1648 cell growth in a cell viability assay.
assayReadout: pIC50
Keep in mind that pIC50 stands for -log10 of concentration in molar terms.

CC[C@]1(O)C[C@@H]2CN(CCc3c([nH]c4ccccc34)[C@@](C(=O)OC)(c3cc4c(cc3OC)N(C)[C@H]3[C@@](O)(C(=O)OC)[C@H](OC(C)=O)[C@]5(CC)C=CCN6CC[C@]43[C@@H]65)C2)C1 [VINBLASTINE]    8.26

Next, consider the following compound.
The reported pIC50 of the compound C/C=C(/C)C(=O)O[C@H]1C(C)=C2[C@H]([C@@H]1OC(=O)CCCCCCC)[C@@](C)(OC(C)=O)C[C@H](OC(=O)CCC)[C@@]1(O)[C@H]2OC(=O)[C@@]1(C)O [THAPSIGARGIN] was 8.84

* * *

System: EW-24;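 also: human EW-24 cancer cell line, growth inhibition read out via a cell viability assay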
Assay: cells
Assay type: functional, cell-based
Conditions: Homo sapiens
Description: SANGER: Inhibition of human EW-24 cell growth in a cell viability assay.
This listing pairs compounds with measured pIC50.
Keep in mind that pIC50 stands for -log10 of concentration in molar terms.

Record excerpt, results attached:
CC[C@@]1(O)C(=O)OCc2c1cc1n(c2=O)Cc2cc3ccccc3nc2-1 [CAMPTOTHECIN]    8.39
C/C=C(/C)C(=O)O[C@H]1C(C)=C2[C@H]([C@@H]1OC(=O)CCCCCCC)[C@@](C)(OC(C)=O)C[C@H](OC(=O)CCC)[C@@]1(O)[C@H]2OC(=O)[C@@]1(C)O [THAPSIGARGIN]    6.83
C[C@]12O[C@H](C[C@]1(O)CO)n1c3ccccc3c3c4c(c5c6ccccc6n2c5c31)CNC4=O [LESTAURTINIB]    6.58
CC(C)=CC[C@@H](O)C1=CC(=O)c2c(O)ccc(O)c2C1=O [SHIKONIN]    4.84
Cc1ccc(NC(=O)c2cccc(C(C)(C)C#N)c2)cc1Nc1ccc2ncn(C)c(=O)c2c1    5.57

The reported pIC50 of the compound CO[C@@]12[C@H](COC(N)=O)C3=C(C(=O)C(C)=C(N)C3=O)N1C[C@@H]1N[C@@H]12 [MITOMYCIN] was 6.11
